Source listed as patent US9938322B2.

system: human red blood cells (hRBC); assay: Hemolysis of human red blood cells; assay type: cell-based; settings: red cells of human, 1 h, 100
Where a SMILES comes first, the peptide text is derived from it. [ ]: non-standard residue; d: D form. Cha = N[C@@H](CC1CCCCC1)C(=O)O; Tle = CC(C)(C)[C@H](N)C(=O)O; dDab = NCC[C@@H](N)C(=O)O; Orn = NCCC[C@H](N)C(=O)O; Dab = NCC[C@H](N)C(=O)O; Nva = CCC[C@H](N)C(=O)O; Dap = NC[C@H](N)C(=O)O
Reported Hemolysis at 100 μg/ml values for the following molecules.
measurement_name: Hemolysis at 100 μg/ml

molecule	measured_target	result
CC(C)C[C@@H]1NC(=O)[C@@H]2CCCN2C(=O)[C@H]2CCCN2C(=O)[C@H](CO)NC(=O)[C@H](C)NC(=O)[C@H](Cc2c[nH]c3ccccc23)NC(=O)[C@H](CCN)NC(=O)[C@H](Cc2c[nH]c3ccccc23)NC(=O)[C@H](CCN)NC(=O)[C@@H](CCN)NC(=O)[C@H](CCCN)NC(=O)[C@H](CCN)NC(=O)[C@H](Cc2ccc(O)cc2)NC(=O)[C@H](CO)NC1=O [compound 34] (cyclo(LSY[Dab][Orn][dDab][Dab]W[Dab]WAS[dP]P))	human red blood cells (hRBC)	1%
CCC[C@@H]1NC(=O)[C@@H]2CCCN2C(=O)[C@H]2CCCN2C(=O)[C@H](CO)NC(=O)[C@H](C)NC(=O)[C@H](C(C)(C)C)NC(=O)[C@H](CCN)NC(=O)[C@H](Cc2c[nH]c3ccccc23)NC(=O)[C@H](CCN)NC(=O)[C@@H](CCN)NC(=O)[C@H](CCCN)NC(=O)[C@H](CCN)NC(=O)[C@H](Cc2ccc(O)cc2)NC(=O)[C@H](CO)NC1=O [compound 47] (cyclo([Nva]SY[Dab][Orn][dDab][Dab]W[Dab][Tle]AS[dP]P))	human red blood cells (hRBC)	1%
CC(C)C[C@@H]1NC(=O)[C@@H]2CCCN2C(=O)[C@H]2CCCN2C(=O)[C@H](CO)NC(=O)[C@H](Cc2ccc(O)cc2)NC(=O)[C@H](C(C)(C)C)NC(=O)[C@H](CCN)NC(=O)[C@H](Cc2c[nH]c3ccccc23)NC(=O)[C@H](CCN)NC(=O)[C@@H](CCN)NC(=O)[C@H](CCCN)NC(=O)[C@H](CCN)NC(=O)[C@H](Cc2ccc(O)cc2)NC(=O)[C@H]([C@@H](C)O)NC1=O [compound 113] (cyclo(LTY[Dab][Orn][dDab][Dab]W[Dab][Tle]YS[dP]P))	human red blood cells (hRBC)	0%
CC(C)C[C@@H]1NC(=O)[C@@H]2CCCN2C(=O)[C@H]2CCCN2C(=O)[C@H]([C@@H](C)O)NC(=O)[C@H](C)NC(=O)[C@H](C(C)(C)C)NC(=O)[C@H](CCN)NC(=O)[C@H](Cc2c[nH]c3ccccc23)NC(=O)[C@H](CCN)NC(=O)[C@@H](CCN)NC(=O)[C@H](CCCN)NC(=O)[C@H](CCN)NC(=O)[C@H](Cc2ccc(O)cc2)NC(=O)[C@H](CO)NC1=O [compound 88] (cyclo(LSY[Dab][Orn][dDab][Dab]W[Dab][Tle]AT[dP]P))	human red blood cells (hRBC)	1%
C[C@@H]1NC(=O)[C@H](Cc2c[nH]c3ccccc23)NC(=O)[C@@H]2CCCN2C(=O)[C@H]2CCCN2C(=O)[C@H](CO)NC(=O)[C@H](C)NC(=O)[C@H](C(C)(C)C)NC(=O)[C@H](CCN)NC(=O)[C@H](Cc2c[nH]c3ccccc23)NC(=O)[C@H](CCN)NC(=O)[C@@H](CCN)NC(=O)[C@H](CCCCN)NC(=O)[C@H](CCN)NC(=O)[C@H](Cc2ccc(O)cc2)NC1=O [compound 78] (cyclo(WAY[Dab]K[dDab][Dab]W[Dab][Tle]AS[dP]P))	human red blood cells (hRBC)	1%
CC[C@H](C)[C@@H]1NC(=O)[C@@H]2CCCN2C(=O)[C@H]2CCCN2C(=O)[C@H](CO)NC(=O)[C@H](C)NC(=O)[C@H](C(C)(C)C)NC(=O)[C@H](CCN)NC(=O)[C@H](Cc2c[nH]c3ccccc23)NC(=O)[C@H](CCN)NC(=O)[C@H](CCN)NC(=O)[C@H](CCCN)NC(=O)[C@H](CCN)NC(=O)[C@H](CC2CCCCC2)NC(=O)[C@H](CO)NC1=O [compound 142] (cyclo(IS[Cha][Dab][Orn][Dab][Dab]W[Dab][Tle]AS[dP]P))	human red blood cells (hRBC)	1%
CC(C)C[C@@H]1NC(=O)[C@@H]2CCCN2C(=O)[C@H]2CCCN2C(=O)[C@H]([C@@H](C)O)NC(=O)[C@H](CO)NC(=O)[C@H](C(C)(C)C)NC(=O)[C@H](CCN)NC(=O)[C@H](Cc2c[nH]c3ccccc23)NC(=O)[C@H](CCN)NC(=O)[C@@H](CCN)NC(=O)[C@H](CCN)NC(=O)[C@H](CCN)NC(=O)[C@H](Cc2ccc(O)cc2)NC(=O)[C@H](CN)NC1=O [compound 149] (cyclo(L[Dap]Y[Dab][Dab][dDab][Dab]W[Dab][Tle]ST[dP]P))	human red blood cells (hRBC)	4%
CC(C)C[C@@H]1NC(=O)[C@@H]2CCCN2C(=O)[C@H]2CCCN2C(=O)[C@H](CO)NC(=O)[C@H](C)NC(=O)[C@H](C(C)(C)C)NC(=O)[C@H](CCN)NC(=O)[C@H](Cc2c[nH]c3ccccc23)NC(=O)[C@H](CCN)NC(=O)[C@@H](CCN)NC(=O)[C@H](CCCCN)NC(=O)[C@H](CCN)NC(=O)[C@H](Cc2ccc(O)cc2)NC(=O)[C@H](CO)NC1=O [compound 25] (cyclo(LSY[Dab]K[dDab][Dab]W[Dab][Tle]AS[dP]P))	human red blood cells (hRBC)	1%
C[C@@H]1NC(=O)[C@H](Cc2c[nH]c3ccccc23)NC(=O)[C@@H]2CCCN2C(=O)[C@H]2CCCN2C(=O)[C@H](CO)NC(=O)[C@H](C)NC(=O)[C@H](C(C)(C)C)NC(=O)[C@H](CCN)NC(=O)[C@H](Cc2c[nH]c3ccccc23)NC(=O)[C@H](CCN)NC(=O)[C@@H](CCN)NC(=O)[C@H](CCCN)NC(=O)[C@H](CCN)NC(=O)[C@H](Cc2c[nH]c3ccccc23)NC1=O [compound 75] (cyclo(WAW[Dab][Orn][dDab][Dab]W[Dab][Tle]AS[dP]P))	human red blood cells (hRBC)	1%

* * *

test system: human red blood cells (hRBC); experiment: Hemolysis of human red blood cells; format: cell-based; details: red cells of human, 1 h, 100
Where a SMILES comes first, the peptide text is derived from it. [ ]: non-standard residue; d: D form. Cha = N[C@@H](CC1CCCCC1)C(=O)O; Tle = CC(C)(C)[C@H](N)C(=O)O; dDab = NCC[C@@H](N)C(=O)O; hSer = N[C@@H](CCO)C(=O)O; Orn = NCCC[C@H](N)C(=O)O; Dab = NCC[C@H](N)C(=O)O; Dap = NC[C@H](N)C(=O)O

compound	measured_target	Hemolysis at 100 μg/ml
CC(C)C[C@@H]1NC(=O)[C@@H]2CCCN2C(=O)[C@H]2CCCN2C(=O)[C@H](CO)NC(=O)[C@H](C)NC(=O)[C@H](C(C)(C)C)NC(=O)[C@H](CN)NC(=O)[C@H](Cc2c[nH]c3ccccc23)NC(=O)[C@H](CCN)NC(=O)[C@@H](CCN)NC(=O)[C@H](CCCN)NC(=O)[C@H](CCN)NC(=O)[C@H](Cc2ccc(O)cc2)NC(=O)[C@H](CO)NC1=O [compound 101] (cyclo(LSY[Dab][Orn][dDab][Dab]W[Dap][Tle]AS[dP]P))	human red blood cells (hRBC)	1%
C[C@@H]1NC(=O)[C@H](C(C)(C)C)NC(=O)[C@H](CCN)NC(=O)[C@H](Cc2c[nH]c3ccccc23)NC(=O)[C@H](CCN)NC(=O)[C@@H](CCN)NC(=O)[C@H](CCCN)NC(=O)[C@H](CCN)NC(=O)[C@H](CC2CCCCC2)NC(=O)[C@H](CCO)NC(=O)[C@H](Cc2c[nH]c3ccccc23)NC(=O)[C@@H]2CCCN2C(=O)[C@H]2CCCN2C(=O)[C@H](CO)NC1=O [compound 18] (cyclo(W[hSer][Cha][Dab][Orn][dDab][Dab]W[Dab][Tle]AS[dP]P))	human red blood cells (hRBC)	3%

* * *

test system: human red blood cells (hRBC); test: Hemolysis of human red blood cells; format: cell-based; conditions: red cells of human, 1 h, 100
Where a SMILES comes first, the peptide text is derived from it. [ ]: non-standard residue; d: D form. dDab = NCC[C@@H](N)C(=O)O; Orn = NCCC[C@H](N)C(=O)O; Dab = NCC[C@H](N)C(=O)O

compound	Hemolysis at 100 μg/ml
CC(C)C[C@@H]1NC(=O)[C@@H]2CCCN2C(=O)[C@H]2CCCN2C(=O)[C@H](CO)NC(=O)[C@H](C)NC(=O)[C@H](Cc2c[nH]c3ccccc23)NC(=O)[C@H](CCN)NC(=O)[C@H](Cc2c[nH]c3ccccc23)NC(=O)[C@H](CCN)NC(=O)[C@@H](CCN)NC(=O)[C@H](CCCN)NC(=O)[C@H](CCN)NC(=O)[C@H](Cc2c[nH]c3ccccc23)NC(=O)[C@H](CO)NC1=O [compound 109] (cyclo(LSW[Dab][Orn][dDab][Dab]W[Dab]WAS[dP]P))	2%
